Hi there, I'd appreciate the recorded %Inh for every entry that follows.
tested on: QSK; conditions: concentration: 1 μM, replicates: in singlicate; n = 1;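 note: KINOMEscan kinase panel screen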
One number for each entry, in %.

- compound: "COc1cccc2c(-c3ccncc3)c(-c3ccc(F)cc3)nn12 [GW468513]"
  property name: "%Inh"
  observed measurement: 0
- compound: "Cc1ccc(C)c(NC(=O)Nc2ccc(C)c(-c3ccc(C(=O)Nc4ccncc4)cc3)c2)c1 [GSK1398473]"
  property name: "%Inh"
  observed measurement: 8
- compound: "CC(C)c1nc(-c2cccc(NS(=O)(=O)c3c(F)cccc3F)c2)c(-c2ccnc(Nc3ccc(N4CCOCC4)nc3)n2)s1.Cl [GSK1723980]"
  property name: "%Inh"
  observed measurement: 82
- compound: "Cl.Cl.NC(CNC(=O)c1cc(Br)c(-c2ccnc3[nH]ccc23)s1)c1ccccc1 (centres unmarked) [GSK1322949]"
  property name: "%Inh"
  observed measurement: 22
- compound: "Nc1ncnc2scc(-c3ccc(NC(=O)Cc4cc(F)ccc4F)cc3)c12.O=C(O)C(F)(F)F [SB-731254-M]"
  property name: "%Inh"
  observed measurement: 32
- compound: "CCNC(=O)/C=C/c1n[nH]c2cc(Sc3ccccc3C(=O)NC)ccc12"
  property name: "%Inh"
  observed measurement: 0
- compound: "Cc1cc(-c2c(-c3ccc(F)cc3)ncn2CCCN2CCOCC2)nc(N)n1 [SB-222517]"
  property name: "%Inh"
  observed measurement: 23

Switching to the query record.
query: Please give the documented %Inh of CC(=O)Nc1cn2nc(Oc3cccc(NC(=O)c4cccc(C(F)(F)F)c4)c3)ccc2n1
result: 0
